molecular target: VIM-1 (Pseudomonas aeruginosa, UniProt A0A0F7KYQ8); experiment: Enzymatic assay for determination of inhibition constants, reporter substrate method, purified VIM-1; assay type: biochemical; settings: isolated MBL, competitive inhibition model;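 further: initial hydrolysis rates of a reporter β-lactam (imipenem, meropenem, cefotaxime or nitrocefin) followed by absorbance change, purified enzyme at 1–70 nM in 50 mM HEPES pH 7.5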
value.kind: Ki

Here's what some known entries look like.
Entry O=C(O)C(CSCCn1c(-c2cccc(-c3ccccc3)c2)n[nH]c1=S)c1ccccc1 (stereo not shown) [Compound 81] has what Ki? 1 to 10 µM

Entry Oc1ccc(CCn2c(-c3cccc(-c4ccccc4)c3)n[nH]c2=S)c(O)c1 [Compound 42] has what Ki? < 1 µM

Entry O=C(O)C(CCCn1c(-c2ccccc2)n[nH]c1=S)N(Cc1c[nH]cn1)Cc1c[nH]cn1 (stereo not shown) [Compound 69] has what Ki? < 1 µM

Let us move to another entry and its Ki.
Entry Oc1ccc(CCn2c(-c3ccccc3)n[nH]c2=S)c(O)c1 [Compound 41] has what Ki? > 100 µM
